Biological target: hNPSR-107N (Homo sapiens)
Sequence (Q6W5P4 whole entry): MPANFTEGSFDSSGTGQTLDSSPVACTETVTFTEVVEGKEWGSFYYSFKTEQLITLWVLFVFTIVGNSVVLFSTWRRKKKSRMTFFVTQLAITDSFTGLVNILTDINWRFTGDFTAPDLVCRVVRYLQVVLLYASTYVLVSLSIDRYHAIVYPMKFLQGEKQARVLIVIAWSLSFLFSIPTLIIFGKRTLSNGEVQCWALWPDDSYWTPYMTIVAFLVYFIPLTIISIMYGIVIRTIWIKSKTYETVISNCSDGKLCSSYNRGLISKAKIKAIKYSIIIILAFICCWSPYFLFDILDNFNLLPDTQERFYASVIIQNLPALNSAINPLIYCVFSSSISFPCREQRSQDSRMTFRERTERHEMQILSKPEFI
Assay: cAMP accumulation assay
Type: cell-based
Where no end group is shown, it is not given here.
READOUT LABEL: EC50

SUBSTANCE | VALUE MEASURED
SFRNGV-NH2 [compound 1, SerPheArgAsnGlyVal-NH2] | 427 nM
